- targetOfAssay: hERG channel (Homo sapiens)
- Sequence (Q12809 whole entry): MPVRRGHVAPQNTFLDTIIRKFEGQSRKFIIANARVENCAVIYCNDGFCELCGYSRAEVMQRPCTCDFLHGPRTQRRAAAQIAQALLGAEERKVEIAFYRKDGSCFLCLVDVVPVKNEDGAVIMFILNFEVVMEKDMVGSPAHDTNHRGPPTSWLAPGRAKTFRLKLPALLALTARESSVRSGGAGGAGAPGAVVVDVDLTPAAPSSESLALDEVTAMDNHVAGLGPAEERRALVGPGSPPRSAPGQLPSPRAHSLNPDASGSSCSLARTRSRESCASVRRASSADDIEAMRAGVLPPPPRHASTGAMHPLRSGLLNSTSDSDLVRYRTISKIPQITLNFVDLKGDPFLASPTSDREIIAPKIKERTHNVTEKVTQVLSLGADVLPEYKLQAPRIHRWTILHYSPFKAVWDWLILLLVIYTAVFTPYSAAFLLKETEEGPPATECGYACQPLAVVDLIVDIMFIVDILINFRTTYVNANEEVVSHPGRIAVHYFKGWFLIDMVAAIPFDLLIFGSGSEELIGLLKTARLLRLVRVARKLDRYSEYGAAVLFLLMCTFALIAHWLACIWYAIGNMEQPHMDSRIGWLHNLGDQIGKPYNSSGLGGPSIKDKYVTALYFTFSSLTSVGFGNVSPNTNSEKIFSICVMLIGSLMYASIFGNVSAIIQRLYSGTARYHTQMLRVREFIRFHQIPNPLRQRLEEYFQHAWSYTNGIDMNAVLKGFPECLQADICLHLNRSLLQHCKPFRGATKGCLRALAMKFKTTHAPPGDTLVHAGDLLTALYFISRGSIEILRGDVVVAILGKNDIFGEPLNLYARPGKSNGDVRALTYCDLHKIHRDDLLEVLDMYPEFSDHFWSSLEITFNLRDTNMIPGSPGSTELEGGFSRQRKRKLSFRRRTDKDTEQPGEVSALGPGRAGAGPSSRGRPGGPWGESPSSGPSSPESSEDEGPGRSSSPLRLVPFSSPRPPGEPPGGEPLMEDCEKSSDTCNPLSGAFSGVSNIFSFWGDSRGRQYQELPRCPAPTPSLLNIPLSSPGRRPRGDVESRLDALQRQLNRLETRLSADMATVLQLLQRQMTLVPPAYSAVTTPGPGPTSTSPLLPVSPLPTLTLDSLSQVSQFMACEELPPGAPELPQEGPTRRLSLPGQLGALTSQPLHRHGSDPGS
- runDescription: hERG channel inhibition assay (Qpatch whole-cell recording, CHO cells expressing hERG)
- assayConditions: Table 3; highest test concentration 40 µM; read-out: inhibitory activity IC50 hERG
- Description: CHO cells expressing hERG protein were cultured in 175cm^2 culture flasks. When the cell density grew to 60-80%, the culture medium was removed, and the cells were washed with 7mL PBS, and then 3mL Detachin was added for digestion. […] (5) Data analysis: The experimental data were analyzed by XLFit software.
Overview of recorded IC50 for various molecules
API: value field is a number in µM; no unit string.

{"columns": ["molecule", "IC50, µM"],
 "data": [
  ["COC1CCC(F)(c2nc3c(c(=O)n(CCCO)c(=O)n3C)n2Cc2ccc(Cl)cc2)CC1 (centres unmarked) [Example E32]", 7.52]
]}

The record that follows has no IC50 shown yet.
Would you kindly share the measured IC50 for Cn1c(=O)n(CCCO)c(=O)c2c1nc(C1(F)CCC(F)(F)CC1)n2Cc1ccc(C(F)(F)F)cc1 [Example E60] ?
13.3
